# assay: Individual predicted steady‐state exposures
# Type: in vivo, human
# measurement_context: human, plasma, intravenous, 187.5 mg, C max,ss geometric mean (CV), Day 3 CrCL 8–15 mL/min (750‐187.5 mg q24 h)
Answer each item with its documented Cmax.
Give bare numbers, in ng/mL.

[[record]]
chem_smiles = "CC(C)(O/N=C(\\C(=O)N[C@@H]1C(=O)N2C(C(=O)[O-])=C(C[n+]3ccccc3)CS[C@H]12)c1csc(N)n1)C(=O)O"
unit_annotation = "ng/mL"
measured_result = 34300


Could you now consider this next compound?
In plain terms, `NC(=O)[C@@H]1CC[C@@H]2CN1C(=O)N2OS(=O)(=O)O` has a documented Cmax of 6300

====

# assay: Individual predicted steady‐state exposures
# Type: in vivo, human
# measurement_context: human, plasma, C max,ss geometric mean (CV), Obesity I (29.9 ≤ BMI < 34.9 kg/m^2)
Answer each item with its documented Cmax.
A complete answer gives the number and then names the unit.

[[record]]
chem_smiles = "CC(C)(O/N=C(\\C(=O)N[C@@H]1C(=O)N2C(C(=O)[O-])=C(C[n+]3ccccc3)CS[C@H]12)c1csc(N)n1)C(=O)O"
property = "Cmax"
measured_result = "67900 ng/mL"


In plain terms, `NC(=O)[C@@H]1CC[C@@H]2CN1C(=O)N2OS(=O)(=O)O` has a documented Cmax of 12000 ng/mL

====

# assay: Individual predicted steady‐state exposures
# Format: in vivo, human
# measurement_context: human, plasma, intravenous, C max,ss geometric mean (CV), Bacteremia at baseline: Yes
Answer each item with its documented Cmax.
Give bare numbers, in ng/mL.

[[record]]
molecule = "CC(C)(O/N=C(\\C(=O)N[C@@H]1C(=O)N2C(C(=O)[O-])=C(C[n+]3ccccc3)CS[C@H]12)c1csc(N)n1)C(=O)O [Ceftazidime, ceftazidime]"
property = "Cmax"
measured_result = 73600


Could you now consider this next molecule?
In plain terms, NC(=O)[C@@H]1CC[C@@H]2CN1C(=O)N2OS(=O)(=O)O [Avibactam, avibactam] has a documented Cmax of 14200

====

Answer each item with its documented Cmax.
# assay: Individual predicted steady‐state exposures
# Assay type: in vivo, human
# measurement_context: human, plasma, C max,ss geometric mean (CV), Obesity: Missing
Numbers only, in ng/mL.

[[record]]
chem_smiles = "NC(=O)[C@@H]1CC[C@@H]2CN1C(=O)N2OS(=O)(=O)O"
property = "Cmax"
measured_result = 14200


Could you now consider this next compound?
In plain terms, `CC(C)(O/N=C(\C(=O)N[C@@H]1C(=O)N2C(C(=O)[O-])=C(C[n+]3ccccc3)CS[C@H]12)c1csc(N)n1)C(=O)O` has a documented Cmax of 70900

====

# assay: Individual predicted steady‐state exposures
# Type: in vivo, human
# measurement_context: human, plasma, AUCss,0–24 geometric mean (CV), Concomitant use of OAT1/OAT3 inhibitor(s): No
property: AUC (µg·h/mL)
One number for each entry, in µg·h/mL.

[[record]]
chem_smiles = "CC(C)(O/N=C(\\C(=O)N[C@@H]1C(=O)N2C(C(=O)[O-])=C(C[n+]3ccccc3)CS[C@H]12)c1csc(N)n1)C(=O)O"
measured_result = 869


In plain terms, `NC(=O)[C@@H]1CC[C@@H]2CN1C(=O)N2OS(=O)(=O)O` has a documented AUC of 142

Hello, the source for this data is paper PMC6440567, in case you need it.
